Source listed as patent US6207677A.

The entries below are paired with their reported log10 of IC50.
# TARGET_OR_SYSTEM: sigma receptors
# ASSAY_EXPLANATION: Inhibition of 3H-DTG binding to sigma receptors in rat brain in vitro
# MEASUREMENT_SETUP: 2 nM 3H-DTG, rat brain without cerebellum, 25° C., 20 min
# Procedure: INHIBITION OF 3H-DTG BINDING TO SIGMA RECEPTORS IN RAT BRAIN IN VITRO By this method the inhibition by drugs of the binding of 2 nM ^3 H-DTG (1,3,di-o-tolyl guanidine) to sigma receptors in homogenates or membranes from rat brain without cerebellum is determined in vitro as modified from Weber et al. Proc. Natl. Acad. Sci. 1986, 83,8784. […]
Would you kindly interpret these values as log10 of IC50 expressed in nM?

Check out these entries, answers already filled in.
- COMPOUND: "CCCCCCCCCCCCCCCCCCN1CCC2(CC1)OCc1ccccc12"
  QUANTITATIVE_RESULT: 1.66
- COMPOUND: "c1ccc2c(c1)COC21CCN(CCCCc2cn(-c3ccsc3)c3ccccc23)CC1"
  QUANTITATIVE_RESULT: -0.60
- COMPOUND: "Fc1ccc2occ(CCCN3CCC4(CC3)OCc3ccccc34)c2c1"
  QUANTITATIVE_RESULT: -0.38
- COMPOUND: "CC(C)c1ccc(C2CCN(CCCCc3cn(-c4ccc(F)cc4)c4ccccc34)CC2)cc1"
  QUANTITATIVE_RESULT: 0.80
- COMPOUND: "CCCCCN1CCC2(CC1)OCc1ccccc12"
  QUANTITATIVE_RESULT: 0.57

Give a short answer stating reported log10 of IC50 for `Fc1ccc(C2CCN(CCCOc3nsc4ccccc34)CC2)cc1` .
-0.70

Give a short answer stating reported log10 of IC50 for `c1ccc2c(c1)COC21CCN(CCCCc2cn(-c3nccs3)c3ccccc23)CC1` .
-0.92

Give a short answer stating reported log10 of IC50 for c1ccc2c(c1)COC1(CCN(CCCSc3csc4ccccc34)CC1)C2 [Compound 31b] .
0.41

Give a short answer stating reported log10 of IC50 for Fc1ccc(-n2cc(CCCCN3C4CCC3CC3(C4)OCc4ccccc43)c3ccccc32)cc1 (stereo not drawn) .
1.41

###

# TARGET_OR_SYSTEM: sigma receptors
# ASSAY_EXPLANATION: Inhibition of 3H-DTG binding to sigma receptors in rat brain in vitro
# MEASUREMENT_SETUP: 2 nM 3H-DTG, rat brain without cerebellum, 25° C., 20 min
The entries below are paired with their reported IC50.
Number only, in nM; omit the unit.

Check out these entries, answers already filled in.
- MOLECULE: "Cc1ccc(S(=O)(=O)n2cc(CCCCN3CCC4(CC3)OCc3ccccc34)c3ccccc32)cc1"
  IC50 / nM: 0.17
- MOLECULE: "Fc1ccc(-n2cc(CCCCN3CCC4(CC3)SCc3ccccc34)c3ccccc32)cc1"
  IC50 / nM: 0.14
- MOLECULE: "c1ccc2c(c1)COC1(CCN(CCCCc3csc4ccccc34)CC1)C2 [Compound 10b]"
  IC50 / nM: 1.3
- MOLECULE: "c1ccc2c(c1)COCC21CCN(CCCCCc2c[nH]c3ccccc23)CC1"
  IC50 / nM: 1.6
- MOLECULE: "Fc1ccc(-n2cc(OCCCN3CCC4(CC3)OCc3ccccc34)c3ccc(Cl)cc32)cc1"
  IC50 / nM: 1.7

Give a short answer stating reported IC50 for OC(CCCN1CCC2(CC1)OCc1ccccc12)C1CCCCC1 (stereo not shown) [Compound 26c] .
0.14

Give a short answer stating reported IC50 for Fc1ccc2c(c1)C(CCCCN1CCC3(CC1)OCc1ccccc13)CO2 (stereo not shown) .
0.3
